assay: Crossover PK of tablet vs methylcellulose suspension in beagle dogs (Example 15); type: in vivo, beagle dog; settings: both sexes, dog, serum, po; beagle dogs, Day 15, 500-mg suspension
Recorded Endpoint: Tmax (h)
Record the value in h, omitting the unit from your answer.

Notebook: CCc1nc2c(C)nc(C)cc2n1-c1ccc(CCNC(=O)NS(=O)(=O)c2ccc(C)cc2)cc1 [grapiprant] , Tmax read as 1

----------
assay: Dose linearity and effect of feeding, PK in cats (Example 10); type: in vivo, cat; details: female, serum, po, 10 mg/kg, cats, Group 4, 10 mg/kg capsule, Fasted, Female, mean
Recorded Endpoint: AUC(0-t) (ng·h/mL)
Record the value in ng·h/mL, omitting the unit from your answer.

Notebook: CCc1nc2c(C)nc(C)cc2n1-c1ccc(CCNC(=O)NS(=O)(=O)c2ccc(C)cc2)cc1 , AUC(0-t) read as 10700

----------
Assay: Dose linearity and effect of feeding, PK in cats (Example 10)
Type: in vivo, cat
Conditions: male, serum, po, 6 mg/kg, cats, Group 3, 6 mg/kg capsule, Fasted, Male, mean; read-out: t1/2 (converted)
Method: Grapiprant was blended in a mixture of excipients as shown in Table 14 and administered orally by capsule to male and female cats. The day of dosing was defined as Day 0. Following dosing, the animals were evaluated for clinical signs. Blood samples were collected prior to dosing and at 0.25, 0.5, 1, 2, 4, 8, 12, and 24-hours postdose. The blood samples were processed to serum and analyzed for grapiprant concentration. There were no test article-related clinical signs. […]
Recorded Endpoint: half-life

Notebook: CCc1nc2c(C)nc(C)cc2n1-c1ccc(CCNC(=O)NS(=O)(=O)c2ccc(C)cc2)cc1 [grapiprant] , half-life read as 2.79 h

----------
assay: Crossover PK of tablet vs methylcellulose suspension in beagle dogs (Example 15); type: in vivo, beagle dog; conditions: both sexes, beagle, dog, serum, po, 500 mg, beagle dogs, both sexes combined, Day 0, 500-mg tablet; read-out: average AUClast
Recorded Endpoint: AUC(0-t) (µg·h/mL)
Record the value in µg·h/mL, omitting the unit from your answer.

Notebook: CCc1nc2c(C)nc(C)cc2n1-c1ccc(CCNC(=O)NS(=O)(=O)c2ccc(C)cc2)cc1 [grapiprant] , AUC(0-t) read as 455

----------
assay: Dose linearity and effect of feeding, PK in cats (Example 10); assay type: in vivo, cat; details: female, serum, po, 2 mg/kg, cats, Group 1, 2 mg/kg capsule, Fed, Female, mean; read-out: t1/2 (converted)
Recorded Endpoint: half-life (h)
Record the value in h, omitting the unit from your answer.

Notebook: CCc1nc2c(C)nc(C)cc2n1-c1ccc(CCNC(=O)NS(=O)(=O)c2ccc(C)cc2)cc1 , half-life read as 2.4

----------
assay: Dose linearity and effect of feeding, PK in cats (Example 10); assay type: in vivo, cat; details: male, serum, po, 10 mg/kg, cats, Group 4, 10 mg/kg capsule, Fasted, Male, mean; read-out: t1/2 (converted)
Recorded Endpoint: half-life (h)
Record the value in h, omitting the unit from your answer.

Notebook: CCc1nc2c(C)nc(C)cc2n1-c1ccc(CCNC(=O)NS(=O)(=O)c2ccc(C)cc2)cc1 [grapiprant] , half-life read as 4.03

----------
experiment: Dose linearity and effect of feeding, PK in cats (Example 10); type: in vivo, cat; conditions: female, serum, po, 6 mg/kg, cats, Group 3, 6 mg/kg capsule, Fasted, Female, mean; read-out: t1/2 (converted)
Recorded Endpoint: half-life (h)
Record the value in h, omitting the unit from your answer.

Notebook: CCc1nc2c(C)nc(C)cc2n1-c1ccc(CCNC(=O)NS(=O)(=O)c2ccc(C)cc2)cc1 [grapiprant] , half-life read as 4.98

----------
assay: Crossover PK of tablet vs methylcellulose suspension in beagle dogs (Example 15); type: in vivo, beagle dog; conditions: both sexes, beagle, dog, serum, po, 500 mg, beagle dogs, both sexes combined, Day 15, 500-mg tablet
Recorded Endpoint: Cmax (µg/mL)
Record the value in µg/mL, omitting the unit from your answer.

Notebook: CCc1nc2c(C)nc(C)cc2n1-c1ccc(CCNC(=O)NS(=O)(=O)c2ccc(C)cc2)cc1 , Cmax read as 101

----------
test: Pharmacokinetics in cats FPK-13-004 (Example 13); assay type: in vivo, cat; conditions: both sexes, serum; cats, single dose 5 mg (1 mg/kg), mean of all animals
Recorded Endpoint: half-life (h)
Record the value in h, omitting the unit from your answer.

Notebook: CCc1nc2c(C)nc(C)cc2n1-c1ccc(CCNC(=O)NS(=O)(=O)c2ccc(C)cc2)cc1 , half-life read as 1.13

----------
assay: Dose linearity and effect of feeding, PK in cats (Example 10); type: in vivo, cat; conditions: female, serum, po, 10 mg/kg, cats, Group 4, 10 mg/kg capsule, Fasted, Female, mean; read-out: t1/2 (converted)
Recorded Endpoint: half-life (h)
Record the value in h, omitting the unit from your answer.

Notebook: CCc1nc2c(C)nc(C)cc2n1-c1ccc(CCNC(=O)NS(=O)(=O)c2ccc(C)cc2)cc1 , half-life read as 4.19

----------
test: Pharmacokinetics in cats FPK-13-004 (Example 13); assay type: in vivo, cat; settings: both sexes, serum; cats, single dose 2.5 mg (0.5 mg/kg), mean of all animals
Recorded Endpoint: half-life (h)
Record the value in h, omitting the unit from your answer.

Notebook: CCc1nc2c(C)nc(C)cc2n1-c1ccc(CCNC(=O)NS(=O)(=O)c2ccc(C)cc2)cc1 , half-life read as 1.58

----------
test: Dose linearity and effect of feeding, PK in cats (Example 10); type: in vivo, cat; details: both sexes, serum, po, 2 mg/kg, Group 2 fasted cats, single oral 2 mg/kg capsule, males and females; read-out: Mean Cmax
Recorded Endpoint: Cmax

Notebook: CCc1nc2c(C)nc(C)cc2n1-c1ccc(CCNC(=O)NS(=O)(=O)c2ccc(C)cc2)cc1 , Cmax read as 1100 to 1630 ng/mL

----------
assay: Pharmacokinetics of capsule, suspension and tablets in dogs (Example 3); assay type: in vivo, dog; conditions: dog, serum; male dogs, Day 0, Group 2: single oral 2 mg/kg, 0.3 mg/mL methylcellulose suspension, mean
Recorded Endpoint: half-life (h)
Record the value in h, omitting the unit from your answer.

Notebook: CCc1nc2c(C)nc(C)cc2n1-c1ccc(CCNC(=O)NS(=O)(=O)c2ccc(C)cc2)cc1 [grapiprant] , half-life read as 4.1

----------
experiment: Dose linearity and effect of feeding, PK in cats (Example 10); assay type: in vivo, cat; conditions: both sexes, serum, po, 10 mg/kg, Group 4 fasted cats, single oral 10 mg/kg capsule, males and females; read-out: Mean Cmax
Recorded Endpoint: Cmax

Notebook: CCc1nc2c(C)nc(C)cc2n1-c1ccc(CCNC(=O)NS(=O)(=O)c2ccc(C)cc2)cc1 , Cmax read as 4280 to 7130 ng/mL

----------
Experiment: Pharmacokinetics of capsule, suspension and tablets in dogs (Example 3)
Assay type: in vivo, dog
Conditions: dog, serum; male dogs, Day 0, Group 2: single oral 2 mg/kg, 0.3 mg/mL methylcellulose suspension, mean
Experimental: The objective of this study was to compare the pharmacokinetic profile of several tablet formulations of grapiprant to capsule and aqueous methylcellulose suspension formulations of grapiprant with 20-mg doses. […] Statistical analyses were conducted to determine differences in Cmax, Tmax, and AUCmax Values were normalized by mg/kg, and group means and standard deviations were calculated for numeric data. […]
Recorded Endpoint: AUC(0-inf) (ng·h/mL)
Record the value in ng·h/mL, omitting the unit from your answer.

Notebook: CCc1nc2c(C)nc(C)cc2n1-c1ccc(CCNC(=O)NS(=O)(=O)c2ccc(C)cc2)cc1 [grapiprant] , AUC(0-inf) read as 1870

----------
assay: Pharmacokinetics in cats FPK-13-004 (Example 13); format: in vivo, cat; details: both sexes, serum, 10 mg/animal; cats, single dose 10 mg (2 mg/kg), mean of all animals
Recorded Endpoint: AUC(0-t) (ng·h/mL)
Record the value in ng·h/mL, omitting the unit from your answer.

Notebook: CCc1nc2c(C)nc(C)cc2n1-c1ccc(CCNC(=O)NS(=O)(=O)c2ccc(C)cc2)cc1 , AUC(0-t) read as 21200

----------
test: Crossover PK of tablet vs methylcellulose suspension in beagle dogs (Example 15); assay type: in vivo, beagle dog; conditions: both sexes, beagle, dog, serum, po, 60 mg, beagle dogs, both sexes combined, Day 15, 60-mg suspension
Recorded Endpoint: Cmax (ng/mL)
Record the value in ng/mL, omitting the unit from your answer.

Notebook: CCc1nc2c(C)nc(C)cc2n1-c1ccc(CCNC(=O)NS(=O)(=O)c2ccc(C)cc2)cc1 , Cmax read as 3810

----------
assay: Pharmacokinetics of capsule, suspension and tablets in dogs (Example 3); assay type: in vivo, dog; settings: dog, serum; male dogs, Day 0, Group 1: single oral 20 mg API in capsule, mean
Recorded Endpoint: Tmax

Notebook: CCc1nc2c(C)nc(C)cc2n1-c1ccc(CCNC(=O)NS(=O)(=O)c2ccc(C)cc2)cc1 , Tmax read as 1.08 h

Reference for the values: patent US12109218B2
